Would you mind telling me the reported protein stability index of each entry?
B1: HDAC6 (parent)
chain: QEGLLDRCVSFQARFAEKEELMLV

Variants of: B1
experiment-notes: protein stability index of a GFP-peptide fusion (GPS, HEK-293T) (PSI 1-6); higher = more stable;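 further: lentivirally expressed fusions sorted by FACS into six bins by GFP to DsRed ratio, PSI derived from sequencing read proportions per bin multiplied by bin number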
measurement-parameters: c terminus: a fixed tail appended
One number for each entry.

The following variants each have a reported value; give each one's protein stability index.
1. G3R
2. M22W
3. L4Y
4. E2H
5. V24M
6. C8A
7. D6Y

1: 2.01; 2: 1.95; 3: 2.01; 4: 1.96; 5: 2.05; 6: 1.97; 7: 1.95
